# test_description: Anodic potential of the compound at pH 9.20 by differential pulse voltammetry
# Assay type: physicochemical
# test_context: pH 9.2
Square brackets hold non-standard residues; d marks the D form. Peptide text beside a SMILES is read from it. Aib = CC(C)(N)C(=O)O
Flag rule - Activity less than 0.03 V flags Met; the remaining entries get Not met.

{"molecule": "CC(C)[C@H](N)C(=O)N[C@H](C(=O)N[C@@H](Cc1ccc(O)cc1)C(=O)N1CCC[C@H]1C(=O)N[C@@H](Cc1c[nH]c2ccccc12)C(=O)N[C@H](C(=O)N[C@@H](CCCCN)C(N)=O)[C@@H](C)O)C(C)C", "label_value": "Not met"}
{"molecule": "CC(C)[C@H](N)C(=O)N[C@H](C(=O)N[C@@H](Cc1ccc(O)cc1)C(=O)N1CCC[C@H]1C(=O)N[C@@H](Cc1c[nH]c2ccccc12)C(=O)N[C@H](C(=O)N[C@@H](CCCN)C(N)=O)[C@@H](C)O)C(C)C", "label_value": "Not met"}
{"molecule": "CC[C@H](C)[C@H](N)C(=O)N[C@H](C(=O)N[C@H](C(=O)N[C@@H](Cc1ccc(O)cc1)C(=O)N1CCC[C@H]1C(=O)N[C@@H](Cc1c[nH]c2ccccc12)C(=O)N[C@H](C(=O)N[C@@H](CCC(N)=O)C(N)=O)[C@@H](C)O)C(C)C)C(C)C", "label_value": "Not met"}
{"molecule": "CC(C)[C@H](N)C(=O)N[C@H](C(=O)N[C@@H](Cc1ccc(O)cc1)C(=O)N1CCC[C@H]1C(=O)N[C@@H](Cc1c[nH]c2ccccc12)C(=O)N[C@H](C(=O)N[C@@H](CCN)C(N)=O)[C@@H](C)O)C(C)C", "label_value": "Met"}
{"molecule": "CC(C)[C@H](N)C(=O)N[C@H](C(=O)N[C@@H](Cc1ccc(O)cc1)C(=O)N1CCC[C@H]1C(=O)N[C@@H](Cc1c[nH]c2ccccc12)C(=O)N[C@H](C(=O)N[C@@H](CN)C(N)=O)[C@@H](C)O)C(C)C", "label_value": "Met"}
{"molecule": "CC(C)[C@H](NC(=O)[C@@H](NC(=O)C(C)(C)N)C(C)C)C(=O)N[C@@H](Cc1ccc(O)cc1)C(=O)N1CCC[C@H]1C(=O)N[C@@H](Cc1c[nH]c2ccccc12)C(=O)N[C@H](C(=O)N[C@@H](CCC(N)=O)C(N)=O)[C@@H](C)O (H-[Aib]VVYPWTQ-NH2)", "label_value": "Not met"}

----------
Catalogue of compounds with associated Activity
# test_description: Anodic potential of the compound at pH 10.20 by differential pulse voltammetry
# Assay type: physicochemical
# test_context: pH 10.2
readout_kind: Activity (V)

{"structure_smiles_string": "CC(C)[C@H](N)C(=O)N[C@H](C(=O)N[C@@H](Cc1ccc(O)cc1)C(=O)N1CCC[C@H]1C(=O)N[C@@H](Cc1c[nH]c2ccccc12)C(=O)N[C@H](C(=O)N[C@@H](CCCN)C(N)=O)[C@@H](C)O)C(C)C", "result_units": "V", "result_number": 0.079}
{"structure_smiles_string": "CC(C)[C@H](N)C(=O)N[C@H](C(=O)N[C@@H](Cc1ccc(O)cc1)C(=O)N1CCC[C@H]1C(=O)N[C@@H](Cc1c[nH]c2ccccc12)C(=O)N[C@H](C(=O)N[C@@H](CCCCN)C(N)=O)[C@@H](C)O)C(C)C", "result_units": "V", "result_number": 0.057}
{"structure_smiles_string": "CC[C@H](C)[C@H](N)C(=O)N[C@H](C(=O)N[C@H](C(=O)N[C@@H](Cc1ccc(O)cc1)C(=O)N1CCC[C@H]1C(=O)N[C@@H](Cc1c[nH]c2ccccc12)C(=O)N[C@H](C(=O)N[C@@H](CCC(N)=O)C(N)=O)[C@@H](C)O)C(C)C)C(C)C", "result_units": "V", "result_number": 0.06}
{"structure_smiles_string": "CC(C)[C@H](N)C(=O)N[C@H](C(=O)N[C@@H](Cc1ccc(O)cc1)C(=O)N1CCC[C@H]1C(=O)N[C@@H](Cc1c[nH]c2ccccc12)C(=O)N[C@H](C(=O)N[C@@H](CN)C(N)=O)[C@@H](C)O)C(C)C", "result_units": "V", "result_number": 0.001}

Attribution: ChEMBL document CHEMBL4229501
